- Target: T1, ECF02_2817
- T1 chain: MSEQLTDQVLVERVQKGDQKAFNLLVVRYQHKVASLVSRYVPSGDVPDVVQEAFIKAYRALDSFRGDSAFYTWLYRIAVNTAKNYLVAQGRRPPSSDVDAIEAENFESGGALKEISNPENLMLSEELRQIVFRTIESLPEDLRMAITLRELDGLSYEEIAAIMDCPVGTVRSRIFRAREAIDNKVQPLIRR
Parameter: fold repression

# Binder, Data value
records = [
    ("AS04_1609 (protein) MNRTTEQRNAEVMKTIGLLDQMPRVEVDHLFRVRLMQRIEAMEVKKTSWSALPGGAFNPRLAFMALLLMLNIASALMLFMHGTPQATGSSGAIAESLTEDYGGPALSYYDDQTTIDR", 2.53),
    ("AS25_1645 (protein) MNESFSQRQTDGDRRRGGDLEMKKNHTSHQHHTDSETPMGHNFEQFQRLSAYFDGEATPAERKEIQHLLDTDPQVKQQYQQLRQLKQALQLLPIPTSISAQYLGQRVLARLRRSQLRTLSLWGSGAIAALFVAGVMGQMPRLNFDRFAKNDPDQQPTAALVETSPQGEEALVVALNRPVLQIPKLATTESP", 9.88),
]
